Just for reference, the supplement of paper PMC11451515 is where these values come from.

Each record here notes measured cell viability.
- Test system: SEM cells
- method-summary: cell viability relative to DMSO control; higher = less cytotoxic
- measurement-parameters: HPLM + 10% dialyzed FBS; 48 h; 0.00234 µM

Worked set:
# molecule, cell viability
rows = [
    ("CN(NC(=O)CC(=O)NN(C)C(=S)c1ccccc1)C(=S)c1ccccc1", "89.7%"),
    ("COc1ncc(-c2ccc3nccc(-c4ccnnc4)c3c2)cc1N[S+](=O)([O-])c1ccc(F)cc1F", "71.8%"),
    ("CN(C)[C@H]\\1[C@@H]2C[C@H]3C(=C(O)\\[C@]2(O)C(=O)\\C(=C1O)C(N)=O)/C(=O)C4=C(O)C=CC=C4[C@@]3(C)O", "88.5%"),
    ("C[C@@H]\\1CC(=O)N\\N=C1C2=CC=C(NN=C(C#N)C#N)C=C2", "86.8%"),
    ("CC(C)C[C@H](NC(=O)[C@H](CCc1ccccc1)NC(=O)CN1CCOCC1)C(=O)N[C@@H](Cc1ccccc1)C(=O)N[C@@H](CC(C)C)C(=O)[C@@]1(C)CO1", "86.5%"),
    ("CNC1CCC(N(Cc2cccc(-c3ccncc3)c2)C(=O)c2sc3c(F)ccc(F)c3c2Cl)CC1 (stereo not drawn)", "102%"),
    ("Cc1[nH]c2ccccc2c1CCNCc1ccc(/C=C/C(=O)NO)cc1", "114%"),
]

The measured cell viability associated with CC1COC2(CCN(CC2)C/3=N/C(=O)C4=CC(=CC(=C4S3)[N+]([O-])=O)C(F)(F)F)O1 (stereo not drawn) reads 105%

---

- System: SEM cells
- method-summary: cell viability relative to DMSO control; higher = less cytotoxic
- measurement-parameters: RPMI 5 mM glucose + 10% FBS; 48 h; 0.19 µM
Each record here notes measured cell viability.
Dear colleague, please return just the value in %, with no unit written.

Query CN1CCN(c2ccc([N+](=O)[O-])c3no[n+]([O-])c23)CC1 on SEM cells; cell viability returned: 106

---

- System: SEM cells
- method-summary: cell viability relative to DMSO control; higher = less cytotoxic
- measurement-parameters: RPMI 5 mM glucose + 10% FBS; 48 h; 0.569 µM
quantity-measured: cell viability

Worked set:
# compound, reading
data = [
    ("CNC1CCC(N(Cc2cccc(-c3ccncc3)c2)C(=O)c2sc3c(F)ccc(F)c3c2Cl)CC1 (centres undefined)", "98%"),
    ("O=C(Nc1cc2cc[nH]c2cn1)c1ccccc1", "104%"),
    ("C=C[C@H]1CN2CC[C@H]1C[C@H]2[C@H](O)c1ccnc2ccc(OC)cc12", "104%"),
    ("COc1cc2ncnc(Nc3ccc(F)c(Cl)c3)c2cc1NC(=O)/C=C/CN1CCCCC1", "124%"),
    ("Nc1nc(N)c2nc(CNc3ccc(C(=O)NC(CCC(=O)O)C(=O)O)cc3)cnc2n1 (centres undefined)", "83%"),
    ("CN(NC(=O)CC(=O)NN(C)C(=S)c1ccccc1)C(=S)c1ccccc1", "5.75%"),
    ("CCC(C)(Oc1ccc(C2(c3ccc(OC(C)(CC)C(=O)O)cc3)CCCCC2)cc1)C(=O)O (centres undefined)", "109%"),
    ("O=C(O)c1ccc2c(c1)nc(Nc1cccc(Cl)c1)c1ccncc12", "104%"),
]

# ---- query compound ----
The measured cell viability associated with CCN1\C=C(\C(O)=O)C(=O)C2=CC=C(C)N=C12 reads 90.9%
